- Test protocol: PSAC antagonists in infected red cells, primary screen, cell-based, P. falciparum Indochina, OD700, 1 h (AID 1154)
- Assay conditions: P. falciparum Indochina infected RBC osmotic lysis, higher = more signal, called active from +8 up or from −8 down
Readout: z-score
Respond with the number and no other words.

Below are worked cases with known answers.
Smiles notation | z-score
COCCOC(=O)N1C(=O)[C@@]2(c3cc(C#CCNC(N)=O)ccc31)[C@H](c1ccc(OCCO)cc1)N1[C@H](c3ccccc3)[C@H](c3ccccc3)OC(=O)[C@H]1[C@@H]2C(=O)NC[C@H](O)c1ccccc1 | 1.65
O=C1[C@@]23C=C(Br)[C@H](C[C@@H]2COC3)[C@@]12CO2 | 0.297
O=C(O)[C@H]1C[C@H]2C(=O)N[C@@H](Cc3ccccc3)C(=O)N2[C@H]1c1cccc(OCCO)c1 | 4.38
CCOC(=O)C[C@H]1[C@H](OC(=O)c2ccc(-c3ccccc3)cc2)[C@@H](NC(=O)Cc2ccc(OC)cc2)c2cc(OCCCO)ccc2N1C(=O)Cc1ccc(OC)cc1 | 4.29
COCCOC(=O)N1C(=O)[C@@]2(c3cc(C#CC4=CCCCC4)ccc31)[C@H](C(=O)N1CCCCCCC1)[C@H]1C(=O)O[C@H](c3ccccc3)[C@H](c3ccccc3)N1[C@@H]2c1ccc(OCCO)cc1 | 4.58

Switching to the query record.
Exercise: Could you tell me which z-score is on file for "COC(=O)C(CC#Cc1ccc2c(c1)[C@]1(C(=O)N2)[C@H](c2ccc(O)cc2)N2[C@H](c3ccccc3)[C@H](c3ccccc3)OC(=O)[C@H]2[C@@H]1C(=O)N1CCCCCCC1)C(=O)OC" ?
Solution: 0.53

* * *

- Test system: Chordin-like protein 2 (CHRDL2)
- Test protocol: CHRDL2 small-molecule binders, primary screen, biochemical, small-molecule microarray, 635 nm fluorescence (AID 1126);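 further: printed compound slides probed with Chrdl2 protein at 4 µg/mL for 1 h at 4 C; score merges 667 nm emission intensity with signal to noise over three replicate slides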
- Assay conditions: small-molecule microarray binding, fluorescence 635 nm; higher = more signal
Readout: composite z-score

Below are worked cases with known answers.
Compound | composite z-score
C=CCC(OC(C)=O)[C@@H]1[C@@H](N(Cc2cccc3ccccc23)C(=O)c2cccc3ccccc23)c2cc(OCCCO)ccc2N1C(=O)c1ccc2ccccc2c1 (some centres undefined) | 0.0526
COC(=O)[C@@]1(Cc2ccccc2CN=[N+]=[N-])N=C(c2ccc(OCCCO)cc2)O[C@H]1c1ccccc1CN=[N+]=[N-] | -1.42
CC1(C)C(=O)C(c2ccccc2)=C2CN3C(=O)N(CCc4ccccc4)C(=O)C3(Cc3ccc(C(F)(F)F)cc3)C=C21 (centres undefined) | -1.06
C=C/C=C/[C@@H]1C(=C)CN([C@@H](Cc2ccccc2)C(=O)OC)[C@H]1[C@@H](O)Cc1ccccc1 | 0.177
CC(C)[Si]1(C(C)C)OCc2cc(-c3ccc(-c4ccc(Cl)c(Cl)c4)o3)nc(CCc3ccccc3)c21 | 0.0164
C=C(CCCC)C(=O)CC[C@@H](OC(=O)c1cccnc1)c1ccc(OCCO)cc1 | 0.894

Exercise: Could you tell me which composite z-score is on file for COCC1C2CC[C@H]3C(OCc4ccc(OC)cc4)OC[C@]4(C)[C@H]3C2=C(CN4C(=O)OC(C)(C)C)[C@H](C)C1COC (some centres undefined) ?
Solution: -0.355

Exercise: "NC(=O)NCC#Cc1ccc2c(c1)[C@]1(C(=O)N2)[C@H](C(=O)N2CCN(c3ncccn3)CC2)[C@H]2C(=O)O[C@H](c3ccccc3)[C@H](c3ccccc3)N2[C@@H]1c1ccc(OCCO)cc1" , same question.
Solution: 0.106

Exercise: "Cc1ccc(S[C@]2(C(=O)NCc3ccccc3)CC(=O)N(Cc3cc(C(F)(F)F)cc(C(F)(F)F)c3)[C@@H]2c2ccc(CO)cc2I)cc1" , same question.
Solution: -1.77

Exercise: "COCC(=C=CC[C@@H](O)c1ccc(OCCO)cc1)CCO" , same question.
Solution: 0.136

Exercise: "COCCOC(=O)N1C(=O)[C@@]2(c3cc(C#CCC(C(=O)OC)C(=O)OC)ccc31)[C@H](C(=O)NC[C@H](O)c1ccccc1)[C@H]1C(=O)O[C@H](c3ccccc3)[C@H](c3ccccc3)N1[C@@H]2c1ccc(OCCO)cc1" , same question.
Solution: 1.13

Exercise: "CCCNC(=O)[C@@]1(C)c2ccccc2C(=O)N(Cc2ccccc2)[C@H]1c1ccc(CO)cc1" , same question.
Solution: -1.13

Exercise: "C=C(C(=O)CC[C@H](OC(=O)c1ccccc1-c1ccccc1C(=O)O)c1ccccc1OCCO)C(C)C" , same question.
Solution: 0.0958

Exercise: "CN1C(=O)[C@@H]2[C@@H](CC(COc3ccccc3)=C([C@H](O)CCc3ccccc3)[C@@H]2CO)C1=O" , same question.
Solution: 0.0213

* * *

- Target of assay: Calmodulin-1 (Homo sapiens)
- Test protocol: CALM1 binders on microarrays, EGTA buffer, profiling panel, biochemical, small-molecule microarray, Cy5-labelled CALM1 (AID 1111);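 further: labelled calmodulin applied in Tris saline Tween buffer holding calcium plus EGTA and DTT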
- Assay conditions: Cy5-CALM1 binding fluorescence, higher = more signal
Readout: composite z-score
Respond with the number and no other words.

Below are worked cases with known answers.
Smiles notation | composite z-score
COCCOC(=O)N1C(=O)[C@@]2(c3cc(C#CC4(O)CCCCCC4)ccc31)[C@H](c1ccc(OCCO)cc1)N1[C@H](c3ccccc3)[C@H](c3ccccc3)OC(=O)[C@H]1[C@@H]2C(=O)Nc1nc2ccccc2s1 | 1.35
C=C(COC)/C(=C/C[C@H](OC(C)=O)c1cccc(OCCO)c1)c1cnc2ccccc2c1 | -0.0062

Exercise: Could you tell me which composite z-score is on file for "COC(=O)c1c2oc(c1C(=O)OC)C(=O)N1CCC[C@H]1Cn1nncc1CN(Cc1ccccc1)C(=O)N[C@H](CO)CC2" ?
Solution: 0.724

* * *

- Test protocol: binders of probe aFST on microarray, primary screen, stem cell growth factor project, biochemical, small-molecule microarray, fluorescence 635/667 (AID 1086);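 further: score merges 667 nm fluorescence with signal-to-noise of each printed compound spot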
- Assay conditions: higher = more signal
Rule: composite z-score under 0.1 gives FALSE, otherwise TRUE.

Some solved entries appear below for comparison.
Compound | Assigned class
CCOC(=O)C1=CCC(c2ccccc2)N(S(=O)(=O)c2ccc([N+](=O)[O-])cc2)C1 (stereo unspecified) | FALSE
CN1C(=O)C2C(C1=O)C1C=C(CCCO)C2C(C2CC2)N1Cc1cc2c(cc1Br)OCO2 (stereo unspecified) | TRUE

Exercise: # check: composite z-score of "CC(C)CNC(=O)[C@@]1(C)c2ccccc2C(=O)N(Cc2cc(C(F)(F)F)cc(C(F)(F)F)c2)[C@H]1c1ccc(CO)cc1" is greater than or equal to 0.1
Solution: FALSE

Exercise: NC(=O)N1C(=O)C2C(C1=O)C1C=C(CCCO)C2C(C2CC2)N1Cc1cccc(OC(F)(F)F)c1 (stereo unspecified) , same question.
Solution: FALSE

Exercise: "COC(=O)[C@@]1(Cc2ccccc2)[C@H]2c3cc(C(=O)N(C)C)n(CCn4cc([N+](=O)[O-])nc4C)c3C[C@H]2CN1C(=O)c1ccccc1" , same question.
Solution: TRUE

Exercise: COC(=O)C1=CC(CCCO)=CC(c2ccc(CN3CCCC3)cc2)N(Cc2cc3c(cc2Br)OCO3)C=C1C(=O)OC (stereo unspecified) , same question.
Solution: TRUE

Exercise: C=CCC(OC(C)=O)[C@@H]1[C@@H](N(Cc2cc3ccccc3o2)C(=O)c2ccc(-c3ccccc3)cc2)c2cc(OCCCO)ccc2N1C(=O)Cc1ccc(OC)cc1 (stereo partly specified) , same question.
Solution: TRUE

Exercise: CC(C)[C@H]1NC(=O)[C@@]23C(=O)N[C@@H](Cc4ccccc4)C2[C@H](C)[C@@]2(C)O[C@H]2C3/C=C/C/C=C\CNC(=O)[C@H](Cc2ccccc2)NC1=O (stereo partly specified) , same question.
Solution: TRUE

Exercise: CN1C(=O)C2C=CC(C(O)c3ccc(F)cc3)N(NC(=O)OC(C)(C)C)C2C1=O (stereo unspecified) , same question.
Solution: TRUE

* * *

- Test protocol: COS7 lysate on small-molecule microarray, probe aHis, 635 nm (AID 1123);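 further: z-score combines 667nm fluorescence intensity with signal-to-noise per printed compound spot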
- Assay conditions: COS7 cell lysate, fluorescence, higher = more signal
Assign a class from recorded composite z-score; defined classes: b0 = under 0.9, b1 = from 0.9 up to 2, b2 = 2 and over

Some solved entries appear below for comparison.
Molecule | Assigned class
COc1ccc(C#Cc2ccc3c(c2)[C@]2(C(=O)N3)[C@H](C(=O)Nc3nc4ccccc4s3)[C@H]3C(=O)O[C@H](c4ccccc4)[C@H](c4ccccc4)N3[C@@H]2c2ccccc2OCCO)cc1 | b1
CN1C(=O)C2C=CC(C(O)c3ccc(F)cc3)N(NC(=O)OC(C)(C)C)C2C1=O (stereo not drawn) | b2
O=C1OCCC=C[C@H]2OC34C=CCN(c5ccc(Cl)cc5)C(=O)[C@H]3N(CCCCCCO)C(=O)[C@@H]4C12 (stereo partly drawn) | b0
COCCOC(=O)N1C(=O)[C@@]2(c3ccccc31)[C@H](c1ccc(OCCO)cc1)N1[C@H](c3ccccc3)[C@H](c3ccccc3)OC(=O)[C@H]1[C@@H]2C(=O)N1CCCCCCC1 | b2
C=CCN1C(=O)[C@]2(O[C@H](CCO)[C@@H]([Si](C)(C)c3ccc(OC)cc3)[C@@H]2C)c2cc(N3C(=O)COc4ccccc43)ccc21 | b0
O=C1O[C@H](c2ccccc2)[C@H](c2ccccc2)N2[C@H]1[C@@H](C(=O)N1CCCCCCC1)[C@]1(C(=O)Nc3ccc(C#CC4(O)CCCCCC4)cc31)[C@H]2c1ccc(O)cc1 | b2

Exercise: Which bin should I file "CCCNC(=O)[C@@]1(C)c2ccccc2C(=O)N(Cc2ccccc2)[C@H]1c1ccc(CO)cc1" under?
Solution: b2

Exercise: "COC(=O)[C@@]1(Cc2ccc(OC)cc2)[C@H]2c3cc(C(=O)N4CCCC4)n(Cc4cc(C)n(C)n4)c3C[C@H]2CN1C(=O)c1ccccc1" , same question.
Solution: b2

Exercise: O=C1OCCC/C=C\[C@H]2OC34C=CCN(c5ccc6ccccc6c5)C(=O)[C@H]3N(CCCO)C(=O)[C@@H]4C12 (stereo partly drawn) , same question.
Solution: b0

Exercise: COc1ccc(C(O)C2C=CC3C(=O)N(c4ccccc4)C(=O)C3N2Nc2ccccc2F)cc1 (stereo not drawn) , same question.
Solution: b1

Exercise: "COCCOC(=O)N1C(=O)[C@@]2(c3cc(C#CC4(O)CCCCCC4)ccc31)[C@H](c1ccc(OCCO)cc1)N1[C@H](c3ccccc3)[C@H](c3ccccc3)OC(=O)[C@H]1[C@@H]2C(=O)Nc1nc2ccccc2s1" , same question.
Solution: b0
